biological target: T1, Human CD137 ECD (human); assay: Biacore SPR, vs parent H183/L072
T1 construct: entry includes C-terminal His-tag and biotin acceptor peptide; also called human CD137 extracellular domain; 4-1BB
T1 sequence (chain, as listed by the source limits assumed): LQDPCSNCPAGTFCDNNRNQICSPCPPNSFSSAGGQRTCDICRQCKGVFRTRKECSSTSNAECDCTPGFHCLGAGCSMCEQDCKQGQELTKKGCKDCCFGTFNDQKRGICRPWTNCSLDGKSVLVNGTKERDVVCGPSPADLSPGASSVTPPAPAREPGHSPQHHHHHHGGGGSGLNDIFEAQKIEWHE
The binders listed here are annotated with their fold change of affinity.
Reported endpoint: fold change of affinity (fold)

# Binder, Assay value
data = [
    ("H183/L072 VL F55H (antibody, name in Kabat numbering, V domains shown, Dual-Ig) VH: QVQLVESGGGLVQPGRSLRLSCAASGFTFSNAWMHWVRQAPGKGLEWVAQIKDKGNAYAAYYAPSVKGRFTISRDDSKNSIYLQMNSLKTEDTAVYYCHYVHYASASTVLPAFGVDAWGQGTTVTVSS VL: DIVMTQSPLSLPVTPGEPASISCQASQELVHMNRNTYLHWYQQKPGQAPRLLIYKVSNRHPGVPDRFSGSGSGTDFTLKISRVEAEDVGVYYCAQGTSVPFTFGQGTKLEIK", 0),
    ("H183/L072 VL Y32L (antibody, name in Kabat numbering, V domains shown, Dual-Ig) VH: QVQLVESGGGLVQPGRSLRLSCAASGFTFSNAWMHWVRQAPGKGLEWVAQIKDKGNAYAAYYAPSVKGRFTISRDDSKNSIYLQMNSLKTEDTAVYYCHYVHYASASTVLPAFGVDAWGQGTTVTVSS VL: DIVMTQSPLSLPVTPGEPASISCQASQELVHMNRNTLLHWYQQKPGQAPRLLIYKVSNRFPGVPDRFSGSGSGTDFTLKISRVEAEDVGVYYCAQGTSVPFTFGQGTKLEIK", 0.2),
    ("H183/L072 VL K50S (antibody, name in Kabat numbering, V domains shown, Dual-Ig) VH: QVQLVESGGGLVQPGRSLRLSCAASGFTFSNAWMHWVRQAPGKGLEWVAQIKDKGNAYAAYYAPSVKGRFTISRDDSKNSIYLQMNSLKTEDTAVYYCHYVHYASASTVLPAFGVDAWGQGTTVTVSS VL: DIVMTQSPLSLPVTPGEPASISCQASQELVHMNRNTYLHWYQQKPGQAPRLLIYSVSNRFPGVPDRFSGSGSGTDFTLKISRVEAEDVGVYYCAQGTSVPFTFGQGTKLEIK", 0),
]

Values compiled from patent US20210388087A1.
